System: Escherichia coli
ASSAY NOTES: Binding affinity to Escherichia coli sliding clamp assessed as gibbs free energy change by ITC analysis
Where a SMILES comes first, the peptide text is derived from it. [ ]: non-standard residue; d: D form. The star is where a group is joined. NMeCha = CN[C@@H](CC1CCCCC1)C(=O)O; tBuAla = CC(C)(C)C[C@H](N)C(=O)O; Cha = N[C@@H](CC1CCCCC1)C(=O)O; NHPhenethyl = c1ccc(CCN*)cc1
ENDPOINT NAME: deltaG (kcal/mol)
Lab book: enter the figure in kcal/mol, no units written.

Entry CC(=O)N[C@@H](CCC(N)=O)C(=O)N[C@@H](CC1CCCCC1)C(=O)N[C@@H](CC(=O)O)C(=O)N[C@@H](CC(C)C)C(=O)NCC(=O)N[C@@H](CC(C)(C)C)C(=O)O (Ac-Q[Cha]DLG[tBuAla]-OH) : reported deltaG = ?
-7.6

Again, but for CC(=O)N[C@@H](CCC(N)=O)C(=O)N[C@@H](CC1CCCCC1)C(=O)N[C@@H](CC(=O)O)C(=O)N[C@@H](CC(C)C)C(=O)N[C@@H](Cc1ccccc1)C(=O)O (Ac-Q[Cha]DLF-OH)
-9.2

One more compound: CC(=O)N[C@@H](CCC(N)=O)C(=O)N[C@@H](CC1CCCCC1)C(=O)N[C@@H](CC(=O)O)C(=O)N[C@@H](CC(C)C)C(=O)N1CCC[C@H]1C(=O)N[C@@H](CC(C)C)C(=O)O (Ac-Q[Cha]DLPL-OH)
-9.2

What do you have for CC(=O)N[C@@H](CCC(N)=O)C(=O)N[C@@H](CC1CCCCC1)C(=O)N[C@@H](CC(=O)O)C(=O)N[C@@H](CC(C)C)C(=O)NCCc1ccccc1 (Ac-Q[Cha]DL-NHPhenethyl) ?
-8.2

Try this compound too: CC(=O)N[C@@H](CCC(N)=O)C(=O)N(C)[C@@H](CC1CCCCC1)C(=O)N[C@@H](CC(=O)O)C(=O)N[C@@H](CC(C)C)C(=O)N[C@@H](Cc1ccccc1)C(=O)O (Ac-Q[NMeCha]DLF-OH)
-6

###

Please respond with reported deltaG for every item in the list.
Test system: Escherichia coli
ASSAY NOTES: Binding affinity to Escherichia coli sliding clamp assessed as gibbs free energy change by ITC analysis
Where a SMILES comes first, the peptide text is derived from it. [ ]: non-standard residue; d: D form. The star is where a group is joined. Acryloyl(3-(3-pyridyl),E) = O=C(/C=C/c1cccnc1)*; Phe(3,4-Cl2) = N[C@@H](Cc1ccc(Cl)c(Cl)c1)C(=O)O; Cha = N[C@@H](CC1CCCCC1)C(=O)O; NMeD = CN[C@@H](CC(=O)O)C(=O)O
Field format: number, assumed kcal/mol, no unit text.

Quick one: deltaG for CC(=O)N[C@@H](CCC(N)=O)C(=O)N[C@@H](CC1CCCCC1)C(=O)N(C)[C@@H](CC(=O)O)C(=O)N[C@@H](CC(C)C)C(=O)N[C@@H](Cc1ccc(Cl)c(Cl)c1)C(=O)O (Ac-Q[Cha][NMeD]L[Phe(3,4-Cl2)]-OH) ?
-10.1

Next entry: CC(C)C[C@H](NC(=O)[C@H](CC(=O)O)N(C)C(=O)[C@H](CC1CCCCC1)NC(=O)[C@H](CCC(N)=O)NC(=O)/C=C/c1cccnc1)C(=O)N[C@@H](Cc1ccc(Cl)c(Cl)c1)C(=O)O ({Acryloyl(3-(3-pyridyl),E)}-Q[Cha][NMeD]L[Phe(3,4-Cl2)]-OH)
-10.1

Also, CC(=O)N[C@@H](CCC(N)=O)C(=O)N[C@@H](CC1CCCCC1)C(=O)N[C@@H](CC(=O)O)C(=O)N[C@@H](CC(C)C)C(=O)N[C@@H](Cc1ccccc1)C(N)=O (Ac-Q[Cha]DLF-NH2) please.
-9

###

ASSAY NOTES: Binding affinity to Escherichia coli sliding clamp assessed as dissociation constant by ITC analysis
pKd: −log10 of the molar value. Where a SMILES comes first, the peptide text is derived from it. [ ]: non-standard residue; d: D form. The star is where a group is joined. Acryloyl(3-(3-pyridyl),E) = O=C(/C=C/c1cccnc1)*; Phe(3,4-Cl2) = N[C@@H](Cc1ccc(Cl)c(Cl)c1)C(=O)O; Oic = O=C(O)[C@@H]1C[C@@H]2CCCC[C@@H]2N1; X3 = CN(C)/C(=N\CC(=O)*)N1CCOCC1; NFurfurylGly = O=C(O)CNCc1ccco1; Cha = N[C@@H](CC1CCCCC1)C(=O)O; NMeD = CN[C@@H](CC(=O)O)C(=O)O; Pip = O=C(O)[C@@H]1CCCCN1; X4 = NC[C@H](Cc1ccccc1)N*
Kindly return Satisfied if reported pKd is no lower than 7; return Not satisfied if it is lower.

Decide: is the reported value of pKd for CC(=O)N[C@@H](CCC(N)=O)C(=O)N[C@@H](CC1CCCCC1)C(=O)N(C)[C@@H](CC(=O)O)C(=O)N[C@@H](CC(C)C)C(=O)N1CCC[C@H]1C(=O)N[C@@H](Cc1ccc(Cl)c(Cl)c1)C(=O)O (Ac-Q[Cha][NMeD]LP[Phe(3,4-Cl2)]-OH) equal to or greater than 7?
Not satisfied

Thanks! And CC(=O)N[C@@H](CCC(N)=O)C(=O)N[C@@H](CC1CCCCC1)C(=O)N[C@@H](CC(=O)O)C(=O)N[C@@H](CC(C)C)C(=O)N1CCCC[C@H]1C(=O)N[C@@H](CC(C)C)C(=O)O (Ac-Q[Cha]DL[Pip]L-OH) ?
Not satisfied

Repeat for the following compound: CC(C)C[C@H](NC(=O)[C@H](CC(=O)O)NC(=O)[C@H](CC1CCCCC1)NC(=O)[C@H](CCC(N)=O)NC(=O)CNCc1ccco1)C(=O)N[C@@H](Cc1ccccc1)C(=O)O (H-[NFurfurylGly]Q[Cha]DLF-OH)
Not satisfied

Consider next the compound CC(C)C[C@H](NC(=O)[C@H](CC(=O)O)NC(=O)[C@H](CC1CCCCC1)NC(=O)[C@H](CCC(N)=O)NC(=O)C/N=C(\N(C)C)N1CCOCC1)C(=O)N[C@@H](Cc1ccccc1)C(=O)O (X3-Q[Cha]DLF-OH) in the same way.
Not satisfied

Same question for CC(=O)N[C@@H](CCC(N)=O)C(=O)N[C@@H](CC1CCCCC1)C(=O)N[C@@H](CC(=O)O)C(=O)N[C@@H](CC(C)C)C(=O)N[C@@H](Cc1ccccc1)C(N)=O (Ac-Q[Cha]DLF-NH2) please.
Not satisfied

One more compound: CC(C)C[C@H](NC(=O)[C@H](CC(=O)O)N(C)C(=O)[C@H](CC1CCCCC1)NC(=O)[C@H](CCC(N)=O)NC(=O)/C=C/c1cccnc1)C(=O)N1CCC[C@H]1C(=O)N[C@@H](Cc1ccccc1)C(=O)O ({Acryloyl(3-(3-pyridyl),E)}-Q[Cha][NMeD]LPF-OH)
Satisfied

One more compound: CC(=O)N[C@@H](CCC(N)=O)C(=O)N[C@@H](CC1CCCCC1)C(=O)N[C@@H](CC(=O)O)C(=O)N[C@@H](CC(C)C)C(=O)N1[C@H](C(=O)N[C@@H](Cc2ccc(Cl)c(Cl)c2)C(=O)O)C[C@@H]2CCCC[C@@H]21 (Ac-Q[Cha]DL[Oic][Phe(3,4-Cl2)]-OH)
Satisfied

Another compound to look at: CC(=O)N[C@@H](CCCNC(=N)N)C(=O)N[C@@H](CCC(N)=O)C(=O)N[C@@H](CC1CCCCC1)C(=O)N[C@@H](CC(=O)O)C(=O)N[C@@H](CC(C)C)C(=O)N[C@@H](Cc1ccccc1)C(=O)O (Ac-RQ[Cha]DLF-OH)
Not satisfied

Check CC(=O)N[C@@H](CCC(N)=O)C(=O)N[C@@H](CC1CCCCC1)C(=O)N[C@@H](CC(=O)O)C(=O)N[C@@H](CC(C)C)C(=O)N[C@H](CN)Cc1ccccc1 (Ac-Q[Cha]DL-X4) too.
Not satisfied

What about this compound? CC(=O)N[C@@H](CCC(N)=O)C(=O)N[C@@H](CC1CCCCC1)C(=O)N(C)[C@@H](CC(=O)O)C(=O)N[C@@H](CC(C)C)C(=O)N1CCC[C@H]1C(=O)N[C@@H](CC(C)C)C(=O)O (Ac-Q[Cha][NMeD]LPL-OH)
Not satisfied

###

Would you mind telling me the reported deltaG of each entry?
System: Escherichia coli
ASSAY NOTES: Binding affinity to Escherichia coli sliding clamp assessed as gibbs free energy change by ITC analysis
Where a SMILES comes first, the peptide text is derived from it. [ ]: non-standard residue; d: D form. The star is where a group is joined. Acryloyl(3-(3-pyridyl),E) = O=C(/C=C/c1cccnc1)*; Phe(3,4-Cl2) = N[C@@H](Cc1ccc(Cl)c(Cl)c1)C(=O)O; Oic = O=C(O)[C@@H]1C[C@@H]2CCCC[C@@H]2N1; Cinnamoyl(4-F) = O=C(/C=C/c1ccc(F)cc1)*; NFurfurylGly = O=C(O)CNCc1ccco1; Cha = N[C@@H](CC1CCCCC1)C(=O)O; NMeD = CN[C@@H](CC(=O)O)C(=O)O
Answer as a quantity: numeral, then unit.

Which deltaG value belongs to CC(=O)N[C@@H](CCC(N)=O)C(=O)N[C@@H](CC1CCCCC1)C(=O)N[C@@H](CC(=O)O)C(=O)N[C@@H](CC(C)C)C(=O)N1[C@H](C(=O)N[C@@H](Cc2ccc(Cl)c(Cl)c2)C(=O)O)C[C@@H]2CCCC[C@@H]21 (Ac-Q[Cha]DL[Oic][Phe(3,4-Cl2)]-OH) ?
-10.1 kcal/mol

Record: CC(C)C[C@H](NC(=O)[C@H](CC(=O)O)NC(=O)[C@H](CC1CCCCC1)NC(=O)[C@H](CCC(N)=O)NC(=O)/C=C/c1ccc(F)cc1)C(=O)N[C@@H](Cc1ccccc1)C(=O)O ({Cinnamoyl(4-F)}-Q[Cha]DLF-OH)
-9.3 kcal/mol

Moving on to CC(C)C[C@H](NC(=O)[C@H](CC(=O)O)NC(=O)[C@H](CC1CCCCC1)NC(=O)[C@H](CCC(N)=O)NC(=O)CNCc1ccco1)C(=O)N[C@@H](Cc1ccccc1)C(=O)O (H-[NFurfurylGly]Q[Cha]DLF-OH)
-9.2 kcal/mol

Next entry: CC(C)C[C@H](NC(=O)[C@H](CC(=O)O)N(C)C(=O)[C@H](CC1CCCCC1)NC(=O)[C@H](CCC(N)=O)NC(=O)/C=C/c1cccnc1)C(=O)N1[C@H](C(=O)N[C@@H](Cc2ccccc2)C(=O)O)C[C@@H]2CCCC[C@@H]21 ({Acryloyl(3-(3-pyridyl),E)}-Q[Cha][NMeD]L[Oic]F-OH)
-9.5 kcal/mol
